target: 5-HT2A receptor (Homo sapiens (Human), UniProt P28223); assay: 5-HT2A receptor Gαq BRET (G protein trimer dissociation); type: cell-based;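 further: cells transfected with 5-HT2A receptor, Gαq-Rluc, Gβ3 and Gγ9-GFP, BRET read with coelenterazine 400a (5 µM) across a compound dilution series in duplicate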
Sequence (P28223 whole entry): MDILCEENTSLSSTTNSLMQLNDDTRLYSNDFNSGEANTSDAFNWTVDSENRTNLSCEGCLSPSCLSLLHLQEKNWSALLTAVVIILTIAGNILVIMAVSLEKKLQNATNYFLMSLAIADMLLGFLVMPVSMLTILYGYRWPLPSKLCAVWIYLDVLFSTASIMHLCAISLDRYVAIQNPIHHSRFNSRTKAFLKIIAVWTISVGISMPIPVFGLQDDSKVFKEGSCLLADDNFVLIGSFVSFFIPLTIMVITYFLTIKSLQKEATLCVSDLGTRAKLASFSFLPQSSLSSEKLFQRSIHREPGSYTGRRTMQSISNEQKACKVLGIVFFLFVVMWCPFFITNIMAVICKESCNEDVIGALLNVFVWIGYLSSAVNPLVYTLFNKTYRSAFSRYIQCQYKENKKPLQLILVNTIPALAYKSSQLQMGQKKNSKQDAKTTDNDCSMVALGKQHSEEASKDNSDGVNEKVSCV
OBSERVED_PROPERTY: pEC50
pEC50 is a log-scale quantity: -log10 of the concentration expressed in molar.

Q: Suppose we examine the molecule OCCN1CCN2c3cccc4scc(c34)CC2C1 (stereo not shown) [Compound I-3] ; what pEC50 value has been reported?
A: 5.82

###

biological target: 5-HT2A receptor (Homo sapiens (Human), UniProt P28223); test: 5-HT2A receptor β-arrestin2 BRET (recruitment); type: cell-based;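 further: cells co-expressing Rluc-tagged 5-HT2A receptor, GRK2 and GFP2-tagged β-arrestin2, read by BRET with coelenterazine 400a (5 µM) across graded drug concentrations in duplicate, signal reflecting β-arrestin2 membrane recruitment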
OBSERVED_PROPERTY: pEC50
pEC50 is a log-scale quantity: -log10 of the concentration expressed in molar.

Q: Suppose we examine the compound OCCN1CCN2c3cccc4scc(c34)CC2C1 (stereo not shown) ; what pEC50 value has been reported?
A: 6.19

###

Here the recorded pKi is given for each entry.
molecular target: 5-HT2A receptor (Homo sapiens (Human)); test: Affinity for 5-HT2A receptors, radioligand competition with [3H]-ketanserin; type: binding; conditions: 293T membrane transiently expressing 5-HT2A
pKi is a log-scale quantity: -log10 of the concentration expressed in molar.

Before answering, review these 6 worked examples.
INSERT INTO results (molecule, reported_measurement) VALUES
  ('O=c1ccc2ccc(OCCCCN3CCN4c5cccc6scc(c56)CC4C3)cc2[nH]1 (stereo not drawn)', 5.85),
  ('O=C1c2ccccc2CCCN1CCCCN1CCN2c3cccc4scc(c34)CC2C1 (stereo not drawn)', 6.52),
  ('Fc1ccc(CCN2CCN3c4cccc5scc(c45)CC3C2)cc1 (stereo not drawn)', 6.04),
  ('OCCN1CCN2c3cccc4scc(c34)CC2C1 (stereo not drawn)', 5.38),
  ('O=C(N[C@H]1CC[C@H](CCN2CCN3c4cccc5scc(c45)CC3C2)CC1)N1CCCC1 (stereo partly drawn)', 6.28),
  ('O=C1CCc2ccc(OCCCCN3CCN4c5cccc6scc(c56)CC4C3)cc2N1 (stereo not drawn)', 6.19);

Q: Suppose we examine the molecule CCCN1CCN2c3cccc4scc(c34)CC2C1 (stereo not drawn) ; what pKi value has been reported?
A: 6.15

Q: Suppose we examine the molecule O=C(CCCN1CCN2c3cccc4scc(c34)CC2C1)c1ccc(F)cc1 (stereo not drawn) ; what pKi value has been reported?
A: 6.49

Q: Suppose we examine the molecule Fc1ccc(-c2cncc(CN3CCN4c5cccc6scc(c56)CC4C3)c2)cc1 (stereo not drawn) ; what pKi value has been reported?
A: 5.84

###

target: dopamine D2 receptors (Homo sapiens (Human)); test: Affinity for dopamine D2 receptors, radioligand competition with [3H]-Methylspiperone; conditions: 293T membrane transiently expressing D2
Sequence (P14416 whole entry): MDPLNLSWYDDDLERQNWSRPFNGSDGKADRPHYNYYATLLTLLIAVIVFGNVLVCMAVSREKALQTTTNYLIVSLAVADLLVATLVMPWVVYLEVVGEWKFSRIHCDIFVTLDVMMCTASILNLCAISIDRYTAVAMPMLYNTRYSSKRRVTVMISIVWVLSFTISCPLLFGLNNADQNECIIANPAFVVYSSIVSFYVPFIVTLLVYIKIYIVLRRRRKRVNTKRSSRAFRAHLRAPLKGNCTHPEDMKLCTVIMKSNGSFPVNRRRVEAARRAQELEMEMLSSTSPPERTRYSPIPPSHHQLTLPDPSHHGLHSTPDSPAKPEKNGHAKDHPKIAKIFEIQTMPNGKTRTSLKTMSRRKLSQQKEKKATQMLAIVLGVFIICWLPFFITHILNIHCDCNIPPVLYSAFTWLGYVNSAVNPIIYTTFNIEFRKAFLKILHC
OBSERVED_PROPERTY: Ki

INSERT INTO results (compound, reported_measurement) VALUES
  ('O=C(NCCN1CCN2c3cccc4scc(c34)CC2C1)c1ccc(F)cc1 (centres unmarked)', '1210 nM'),
  ('c1cc2c3c(csc3c1)CC1CN(CCCOc3ccc4c(c3)OCO4)CCN21 (centres unmarked)', '1550 nM'),
  ('Fc1ccc(-c2cncc(CN3CCN4c5cccc6scc(c56)CC4C3)c2)cc1 (centres unmarked)', '440 nM'),
  ('O=C(NCCN1CCN2c3cccc4scc(c34)CC2C1)C1CCOCC1 (centres unmarked)', '> 10000 nM');

Q: Param readout= Ki; system= dopamine D2 receptors (Homo sapiens (Human)); entry= CCCN1CCN2c3cccc4scc(c34)CC2C1 (centres unmarked) ; returns value.
A: 380 nM
